# measurement.notes: photoluminescence quantum yield (fraction); solvent given as SMILES
# cond: in CCCCCCCCO
endpoint.label: photoluminescence quantum yield

Data request, read-out photoluminescence quantum yield, for CC1=CC(C)=[N+]2C1=Cc1c3ccccc3c(C#Cc3cccs3)n1[B-]2(F)F
0.45

Name the recorded photoluminescence quantum yield for CC1=CC(C)=[N+]2C1=Cc1c3ccccc3c(C#Cc3ccsc3)n1[B-]2(F)F .
0.72

Requested field: photoluminescence quantum yield. Item: CC1=C(C(C)(C)C)C(C)=[N+]2C1=C(C)c1c(C)c(C(C)(C)C)c(C)n1[B-]2(F)F
0.41

Which value of photoluminescence quantum yield has been reported for CCN(CC)c1ccc2c(C)cc(=O)oc2c1 in the records?
0.68

Fill in the blank: the reported photoluminescence quantum yield of Cn1cc(/C=C/C(=O)c2ccccc2)c2ccccc21 is ____.
0.345

Data provenance: the Deep4Chem optical property database
